Hey, just so you know, these numbers are from the kinase profiling compilation of Christmann-Franck et al. (2016).

# Experimental System: RPS6KA3 KD1 KD2 (human) (UniProt P51812)
# Sequence (P51812 whole entry, looked up): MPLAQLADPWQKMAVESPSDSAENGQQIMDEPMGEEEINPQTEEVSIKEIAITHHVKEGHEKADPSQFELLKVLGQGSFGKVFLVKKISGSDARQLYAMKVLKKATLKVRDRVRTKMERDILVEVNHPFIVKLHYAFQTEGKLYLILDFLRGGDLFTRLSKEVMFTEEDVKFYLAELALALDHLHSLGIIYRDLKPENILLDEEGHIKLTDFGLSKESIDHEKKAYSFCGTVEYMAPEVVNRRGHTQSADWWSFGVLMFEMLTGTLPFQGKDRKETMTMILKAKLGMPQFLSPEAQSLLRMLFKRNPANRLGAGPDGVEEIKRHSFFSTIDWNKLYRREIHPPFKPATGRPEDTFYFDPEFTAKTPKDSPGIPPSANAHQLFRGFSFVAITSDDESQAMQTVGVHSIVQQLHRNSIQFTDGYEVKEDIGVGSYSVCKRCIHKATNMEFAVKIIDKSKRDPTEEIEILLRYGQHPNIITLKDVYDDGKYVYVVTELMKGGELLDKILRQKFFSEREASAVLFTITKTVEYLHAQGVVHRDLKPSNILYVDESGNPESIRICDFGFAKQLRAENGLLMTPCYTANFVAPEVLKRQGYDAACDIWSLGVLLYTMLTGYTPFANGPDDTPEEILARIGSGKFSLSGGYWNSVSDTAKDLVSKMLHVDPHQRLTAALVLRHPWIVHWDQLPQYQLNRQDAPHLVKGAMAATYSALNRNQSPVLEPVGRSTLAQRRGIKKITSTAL
# Assay Overview: radiometric filter-binding kinase assay, Kinase HotSpot
# Assay Setup: compound 0.5 µM; ATP 10 µM
residual activity by entry:

Compound	residual activity [%]
Clc1ccc(Nc2nnc(Cc3ccncc3)c3ccccc23)cc1	101
CCN1/C(=C/C(C)=O)Sc2ccc(OC)cc21	102
O=c1cc(-c2cccc3c2Sc2ccccc2S3)oc(N2CCOCC2)c1	102
Nc1n[nH]c2nnc(-c3c(-c4ccccc4)nn4ccccc34)cc12	98.7
CS(=O)c1ccc(-c2nc(-c3ccc(F)cc3)c(-c3ccncc3)[nH]2)cc1 (stereo unspecified)	95.7
O=C(NC(NC(=S)Nc1ccc(F)c([N+](=O)[O-])c1)C(Cl)(Cl)Cl)C(c1ccccc1)c1ccccc1 (stereo unspecified)	96.2
O=c1cc(N2CCNCC2)oc2c(-c3ccccc3)cccc12	101
Nc1nc(Nc2ccc(S(N)(=O)=O)cc2)nn1C(=O)c1c(F)cccc1F	38.6
CSc1nc(-c2ccc(F)cc2)c(-c2ccnc(NC(C)c3ccccc3)c2)[nH]1 (stereo unspecified)	91
COc1ccc(-c2cnc3c(-c4ccsc4)cnn3c2)cc1	83.6
COc1cc2ncnc(Nc3ccc(F)c(Cl)c3)c2cc1OCCCN1CCOCC1	100

###

# Experimental System: MARK2 (human)
# Assay Overview: radiometric filter-binding kinase assay, Kinase HotSpot
# Assay Setup: compound 0.5 µM; ATP 10 µM

Compound	residual activity
O=C1Nc2ccccc2/C1=C\c1c(Cl)[nH]c2ccccc12	94.7%
COc1cc2ncnc(Nc3ccc(F)c(Cl)c3)c2cc1OCCCN1CCOCC1	119%
Cc1ccc(NC(=O)c2ccc(CN3CCN(C)CC3)cc2)cc1Nc1nc(-c2cccnc2)cs1	104%
O=c1cc(N2CCNCC2)oc2c(-c3ccccc3)cccc12	105%
O=C1Nc2cc(Br)ccc2/C1=C1/Nc2ccccc2/C1=N\O	61.8%
Clc1ccc(Nc2nnc(Cc3ccncc3)c3ccccc23)cc1	133%
CCCNC(=O)Nc1ccc(Oc2ncnc3cc(OC)c(OC)cc23)cc1Cl	96.2%
CCN1/C(=C/C(C)=O)Sc2ccc(OC)cc21	89.5%
NC(=O)c1ccc(N(C(N)=O)c2c(F)cccc2F)nc1-c1ccc(F)cc1F	131%
CSc1nc(-c2ccc(F)cc2)c(-c2ccnc(NC(C)c3ccccc3)c2)[nH]1 (stereo unspecified)	90.7%
C#Cc1cccc(Nc2ncnc3cc(OCCOC)c(OCCOC)cc23)c1	129%

###

# Experimental System: PBK (human) (UniProt Q96KB5)
# Sequence (Q96KB5 whole entry, looked up): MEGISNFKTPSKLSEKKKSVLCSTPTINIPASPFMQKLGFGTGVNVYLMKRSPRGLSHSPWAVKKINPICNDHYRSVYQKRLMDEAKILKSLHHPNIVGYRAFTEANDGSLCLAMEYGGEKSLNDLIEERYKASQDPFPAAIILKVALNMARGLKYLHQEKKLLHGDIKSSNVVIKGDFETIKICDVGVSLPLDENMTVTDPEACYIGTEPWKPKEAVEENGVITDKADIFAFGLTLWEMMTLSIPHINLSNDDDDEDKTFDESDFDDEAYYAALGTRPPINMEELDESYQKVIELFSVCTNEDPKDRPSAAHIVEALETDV
# Assay Overview: radiometric filter-binding kinase assay, Kinase HotSpot
# Assay Setup: compound 0.5 µM; ATP 10 µM
Measurement Label: residual activity (%)

Chemical Structure	Measurement Label	Reported Result
O=C1Cc2c([nH]c3ccc([N+](=O)[O-])cc23)-c2ccccc2N1	residual activity	85.1
O=C(Nc1ccc(Cl)cc1)c1ccccc1NCc1ccncc1	residual activity	88.5
Nc1nc(Nc2ccc(S(N)(=O)=O)cc2)nn1C(=S)Nc1c(F)cccc1F	residual activity	105
Nc1n[nH]c2nnc(-c3c(-c4ccccc4)nn4ccccc34)cc12	residual activity	95
Oc1ccc(-c2nc(-c3ccc(F)cc3)c(-c3ccncc3)[nH]2)cc1	residual activity	100
C#Cc1cccc(Nc2ncnc3cc(OCCOC)c(OCCOC)cc23)c1	residual activity	104

###

residual activity by entry:
# Experimental System: UniProtKB P31749
# Sequence (P31749 whole entry, looked up): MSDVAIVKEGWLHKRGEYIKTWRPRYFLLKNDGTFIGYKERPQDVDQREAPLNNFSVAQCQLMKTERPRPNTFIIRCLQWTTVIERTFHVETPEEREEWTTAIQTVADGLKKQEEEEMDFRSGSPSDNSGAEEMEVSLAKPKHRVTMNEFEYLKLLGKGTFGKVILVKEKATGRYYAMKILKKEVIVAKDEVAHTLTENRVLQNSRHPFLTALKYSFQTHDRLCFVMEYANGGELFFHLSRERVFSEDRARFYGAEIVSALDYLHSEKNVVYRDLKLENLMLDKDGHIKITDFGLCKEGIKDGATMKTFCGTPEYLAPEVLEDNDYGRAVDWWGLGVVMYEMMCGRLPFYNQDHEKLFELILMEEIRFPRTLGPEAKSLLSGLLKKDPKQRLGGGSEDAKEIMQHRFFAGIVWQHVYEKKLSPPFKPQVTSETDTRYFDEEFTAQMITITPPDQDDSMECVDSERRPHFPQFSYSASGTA
# Assay Overview: radiometric filter-binding kinase assay, Kinase HotSpot
# Assay Setup: compound 0.5 µM; ATP 10 µM
Measurement Label: residual activity (%)

Compound	Result Unit	Reported Result
CC(C)n1cnc2c(Nc3cccc(Cl)c3)nc(NCCO)nc21	%	103
CCCNC(=O)Nc1ccc(Oc2ncnc3cc(OC)c(OC)cc23)cc1Cl	%	93
COc1cc2ncnc(Nc3ccc(F)c(Cl)c3)c2cc1OCCCN1CCOCC1	%	94.1
CSc1nc(-c2ccc(F)cc2)c(-c2ccnc(NC(C)c3ccccc3)c2)[nH]1 (stereo not given)	%	101
O=C1Nc2cc(Br)ccc2/C1=C1/Nc2ccccc2/C1=N\O	%	97.7
O=C1Cc2c([nH]c3ccc([N+](=O)[O-])cc23)-c2ccccc2N1	%	107
CS(=O)c1ccc(-c2nc(-c3ccc(F)cc3)c(-c3ccncc3)[nH]2)cc1 (stereo not given)	%	102
O=c1cc(-c2cccc3c2Sc2ccccc2S3)oc(N2CCOCC2)c1	%	113
O=C(NC(NC(=S)Nc1ccc(F)c([N+](=O)[O-])c1)C(Cl)(Cl)Cl)C(c1ccccc1)c1ccccc1 (stereo not given)	%	118
CC(C)[C@H](CO)Nc1nc(Nc2cccc(Cl)c2)c2ncn(C(C)C)c2n1	%	102
